Provenance of the data: patent US8969388B1

Would you mind telling me the reported F of each entry?
test: Pharmacokinetics after intravenous and oral administration in rats; format: in vivo; details: oral bioavailability, iv dose 1 mg/kg, oral dose not given
Numeric answer only, unit % assumed.

// field: F; key: CC(=O)Nc1cc(Oc2cc(F)c(NC(=O)c3c(C)n(C)n(-c4ccccc4)c3=O)cc2F)ccn1 [Ex. 9] ; value = 61.2

// F lookup, compound = Cc1c(C(=O)Nc2ccc(Oc3ccnc(N)c3)cc2)c(=O)n(-c2ccccc2)n1C [Ex. 1] , result: 31.2

Lookup result for Cc1c(C(=O)Nc2ccc(Oc3ccnc(N)c3Cl)cc2)c(=O)n(-c2ccccc2)n1C [Ex. 2] ; measured F: 98.5

So for Cc1c(C(=O)Nc2ccc(Oc3ccnc(NC(=O)N4CCOCC4)c3)cn2)c(=O)n(-c2ccccc2)n1C [Ex. 18] , the logged F turned out to be 77.2

Entry Cc1c(C(=O)Nc2cc(F)c(Oc3ccnc(NC(=O)N4CCOCC4)c3)cc2F)c(=O)n(-c2ccccc2)n1C [Ex. 10] ; F = 83.2

F reading for Cc1c(C(=O)Nc2ccc(Oc3ccnc(N)c3Cl)c(F)c2)c(=O)n(-c2ccccc2)n1C [Ex. 3] : 177.1

====

test: Pharmacokinetics after intravenous and oral administration in rats; type: in vivo; conditions: oral bioavailability, iv dose 2 mg/kg, oral dose not given
Record form. Attribute: F. Fill in for each entry.
Quick note: give the figure in %, leave out the unit.

So for `Cc1c(C(=O)Nc2cc(F)c(Oc3ccnc(N)c3)cc2F)c(=O)n(-c2ccccc2)n1C` , the logged F turned out to be 85.1

Reported F for `Cc1c(C(=O)Nc2ccc(Oc3ccnc(N)c3)c(F)c2)c(=O)n(-c2ccccc2)n1C` was 78.1

Sure, the documented F for `Cc1c(C(=O)Nc2cc(F)c(Oc3ccnc(N)c3Cl)cc2F)c(=O)n(-c2ccccc2)n1C` is 88.0

For record `CC(=O)Nc1cc(Oc2ccc(NC(=O)c3c(C)n(C)n(-c4ccccc4)c3=O)cc2F)ccn1` the listed F is 69.7

====

I'd be grateful if you could share measured pKd for these entries.
Keep in mind that pKd stands for -log10 of concentration in molar terms.

Entry Cc1c(C(=O)Nc2ccc(Oc3ccnc(N)c3)cc2Cl)c(=O)n(-c2ccccc2)n1C [Ex. 12] under c-Met (h) (Homo sapiens) had pKd of 7.25

pKd on c-Met (h) (Homo sapiens) for Cc1c(C(=O)Nc2cc(F)c(Oc3ccnc(N)c3Cl)cc2F)c(=O)n(-c2ccccc2)n1C [Ex. 11] is 8.85

The measured pKd that Cc1c(C(=O)Nc2ccc(Oc3ccnc(N)c3)c(F)c2F)c(=O)n(-c2ccccc2)n1C [Ex. 5] showed for c-Met (h) (Homo sapiens) is 7.43

// pKd (c-Met (h) (Homo sapiens)) for CC(=O)Nc1cc(Oc2ccc(NC(=O)c3c(C)n(C)n(-c4ccccc4)c3=O)cc2F)ccn1 [Ex. 23] = 8.29

Summary line: Cc1c(C(=O)Nc2ccc(Oc3ccnc(N)c3Cl)cn2)c(=O)n(-c2ccccc2)n1C [Ex. 19] , c-Met (h) (Homo sapiens), reported pKd = 7.80

====

experiment: Pharmacokinetics after intravenous and oral administration in rats; assay type: in vivo; conditions: rat, plasma, iv dosing, 2 mg/kg, read-out: Vss
Would you kindly list Vd for each of these compounds?
Only the number, expressed in L/kg, is required.

Quick note, Vd for `Cc1c(C(=O)Nc2cc(F)c(Oc3ccnc(N)c3)cc2F)c(=O)n(-c2ccccc2)n1C` landed at 0.51

The compound `Cc1c(C(=O)Nc2ccc(Oc3ccnc(N)c3)cc2F)c(=O)n(-c2ccccc2)n1C` showed Vd equal to 2.64

Recorded Vd (compound `Cc1c(C(=O)Nc2ccc(Oc3ccnc(N)c3)c(F)c2)c(=O)n(-c2ccccc2)n1C` ): 0.56

Reported Vd of `Cc1c(C(=O)Nc2cc(F)c(Oc3ccnc(N)c3Cl)cc2F)c(=O)n(-c2ccccc2)n1C` : 1.17

Entry `Cc1c(C(=O)Nc2ccc(Oc3ccnc(N)c3Cl)cc2F)c(=O)n(-c2ccccc2)n1C` , Vd reported as 0.4

Value of Vd reported for the compound `Cc1c(C(=O)Nc2ccc(Oc3ccnc(N)c3)cc2Cl)c(=O)n(-c2ccccc2)n1C` is 0.69

Input `CC(=O)Nc1cc(Oc2ccc(NC(=O)c3c(C)n(C)n(-c4ccccc4)c3=O)cc2F)ccn1` . Output Vd: 0.18

Memo: `Cc1c(C(=O)Nc2ccc(Oc3ccnc(N)c3)c(F)c2F)c(=O)n(-c2ccccc2)n1C` , reported Vd: 0.53

Entry `CC(=O)Nc1cc(Oc2ccc(NC(=O)c3c(C)n(C)n(-c4ccccc4)c3=O)nc2)ccn1` , Vd reported as 0.22
